- Tested on: LXRb:RXRa (NR concentration 270 nM, RXRa partner concentration 90 nM)
- test name: PBM binding z-score (relative to random genomic background probes); higher = stronger binding; sequences stand for … in GC…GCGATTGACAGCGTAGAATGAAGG
endpoint label: PBM binding z-score
Give only the figure.

CCTACTGGGCCACGATAGGTCATTGATTCAGTGA 1.74
CAAATTAGGTCACCGGAAGGTCAAAGTCCGCATG 5.47
ATCTCTAGGTAAAAGTTCAGTTAATCCCGAGGAT 1.34
ATATGTAGGTTAAGGGTCAATCAGGTTGGTTCGC 4.47
GTACCAAGGTAAATAGGTCGTTGATGAGTAGGCG 0.151
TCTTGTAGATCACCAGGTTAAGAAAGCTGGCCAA 0.696

Measured PBM binding z-score, `CGTCCAAGGTCAGTAGGTCAGTGAAAGCGACGTG` : 2.78

PBM binding z-score for `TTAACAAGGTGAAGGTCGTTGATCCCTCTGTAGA` is 1.35

The sequence listed as `GGAACGGGGGCAAAGTTGATAGCATCTGTCGACG` shows PBM binding z-score equal to 4.64

Form: sequence = `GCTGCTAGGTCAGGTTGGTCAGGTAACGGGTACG` ; PBM binding z-score = 0.63

Reported PBM binding z-score for `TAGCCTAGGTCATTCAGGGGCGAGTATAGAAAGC` was 3.77

According to the records, this sequence `GATACAGGGTCAGCTAGAGGCCAGAATATGGAAA` displays PBM binding z-score of 2.61

According to the records, this sequence `TTACCAAGGTGAGCTGAGGTCGTTGGTCCAACTC` displays PBM binding z-score of 0.439

Per the record, `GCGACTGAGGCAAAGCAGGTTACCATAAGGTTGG` has PBM binding z-score of -0.567

###

- Tested on: PPARg:RXRa 270nM:90nM, anti-RXR (NR concentration 270 nM, RXRa partner concentration 90 nM)
- test name: PBM binding z-score (relative to random genomic background probes); higher = stronger binding; sequences stand for … in GC…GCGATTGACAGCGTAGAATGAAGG
endpoint label: PBM binding z-score
Give the value as a plain number.

Take a look at these entries with their results.
CGTCCAAGGTCAGAGAGGCCAGTGAATGCCGAGT 2.45
GTACCAAGGTGAATAGGTCGGTGATGAGTAGGCG 1.29
CCGACTGGGGCAAACGTTACCATACTCAGTACGA 4.48
GCTCGGAGGACTAGGTCAGAGCTTTGTCCGTAGA 1.04
AGAATGCGGTTAAGATCAGGGAAACAGAATACAT 0.0448

Per the records, this sequence ( `TTACCAAGGCGAAGGTCGTTGATCCCTCTGTAGA` ) has PBM binding z-score equal to 5.81

Entry `CAAACTAGGTCACCAGAAGGTCAAAGTCCGCATG` ; PBM binding z-score = 7.94

Lab note: measured PBM binding z-score of `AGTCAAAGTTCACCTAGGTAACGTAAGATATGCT` was 6.41

###

- Tested on: PPARa:RXRa (NR concentration 270 nM, RXRa partner concentration 90 nM)
- test name: PBM binding z-score (relative to random genomic background probes); higher = stronger binding; sequences stand for … in GC…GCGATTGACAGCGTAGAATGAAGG
Bucketed by reported PBM binding z-score, buckets being lower segment: < 2; middle segment: ≥ 2 and < 4; upper segment: ≥ 4

Answered examples (5):
AGAATGAGGTTACCGAAGATCAGGGAAACGCTTG middle segment
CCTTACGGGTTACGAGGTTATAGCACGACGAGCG middle segment
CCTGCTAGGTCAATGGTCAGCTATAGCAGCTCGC middle segment
AGTAAAAGTTCATCTAGGTAACGTAAGATATGCT upper segment
ATCTCTAGGTATAGATAGTTCAGTGAATGCAAAT lower segment

Ask | Please let me know in which category the item `CCTTGCGGGTCACGAGGTTATAGCACGACGAGCG` belongs.
Reply | upper segment

Ask | Hey, which category is `CCTGCTAGGTCATGGTCATCTAATCTACAGTATG` in, do you know?
Reply | middle segment

Ask | Kindly identify the class of `CCTTACGGGTCCCGAGGTTATAGCACGACGAGCG` .
Reply | lower segment

Ask | Just checking, what class would you give `CAAGCTAGGTCAAGGTCAAAGTCGGTTTGTGCCA` here?
Reply | upper segment

Ask | In plain terms, what class is `GTACCAAGGTCAATAGGTCGTTGATGAGTAGGCG` ?
Reply | upper segment

Ask | # bin lookup: classify `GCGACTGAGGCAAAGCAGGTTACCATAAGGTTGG` by its PBM binding z-score
Reply | lower segment

Ask | Class? Entry: `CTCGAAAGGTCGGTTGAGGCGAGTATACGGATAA`
Reply | middle segment
